System: Danio rerio larvae (5 dpf)
testSummary: difference in combined optomotor response to red, green and blue moving lines vs DMSO (percentage points); higher = stronger optomotor response than DMSO
recordedConditions: 10 µM; exposure time 6 h
Structures can show the parent of a compound that is named as a salt.
Each entry belongs to exactly one class, chosen by where its difference falls: 1: < 0.6; 2: ≥ 0.6 and < 7; 3: ≥ 7

Example entries begin here.
O=C1c2cccc3c2[C@H](CCC3)CN1[C@@H]1CN2CCC1CC2 [Palonosetron (hydrochloride)]; 2
O=P(O)(O)C(O)(Cc1cccnc1)P(=O)(O)O [Risedronate (sodium salt)]; 3
CCCSc1nc(N[C@@H]2C[C@H]2c2ccc(F)c(F)c2)c2nnn([C@@H]3C[C@H](OCCO)[C@@H](O)[C@H]3O)c2n1; 3
C[C@]12C=CC(=O)C=C1CC[C@@H]1[C@@H]2[C@@H](O)C[C@@]2(C)[C@H]1CC[C@]2(O)C(=O)CO; 3
O=C(O)C(=O)O.[NH-][C@@H]1CCCC[C@H]1[NH-].[Pt+2]; 2

Lookup: # bin lookup: classify CCCN1CCCC[C@H]1C(=O)Nc1c(C)cccc1C [(-)-Ropivacaine (hydrochloride hydrate)] by its difference
Found: 2

Lookup: # bin lookup: classify COc1ccc(C(=O)CC(=O)c2ccc(C(C)(C)C)cc2)cc1 by its difference
Found: 1

Lookup: # bin lookup: classify CNC(=O)c1cnn(-c2nc(N)c3ncn([C@@H]4O[C@H](CO)[C@@H](O)[C@H]4O)c3n2)c1 by its difference
Found: 2

Lookup: # bin lookup: classify C[N+](C)(C)CC=O [Betaine Aldehyde (chloride)] by its difference
Found: 2

* * *

Tested on: Danio rerio larvae (5 dpf)
testSummary: difference in combined optomotor response to red, green and blue moving lines vs DMSO (percentage points); higher = stronger optomotor response than DMSO
recordedConditions: 10 µM; exposure time 6 h
Structures can show the parent of a compound that is named as a salt.
The compounds listed here are annotated with their difference.
Respond using a number only.

COC(=O)[C@H](c1ccccc1Cl)N1CCc2sccc2C1 (racemic) [(±)-Clopidogrel (hydrochloride)]; 8.08
Nc1ccc(S(=O)(=O)c2ccc(N)cc2)cc1; 1.86
NCCC(O)(P(=O)(O)O)P(=O)(O)O [Pamidronate (sodium salt)]; 2.29
CC(C)n1c(/C=C/C(O)CC(O)CC(=O)O)c(-c2ccc(F)cc2)c2ccccc21 (stereo unspecified) [Fluvastatin (sodium salt hydrate)]; 3.05
Nc1ccc(S(=O)(=O)Nc2ncccn2)cc1; -1.28

Lookup: Reported difference for CN[C@H](CC(C)C)C(=O)N[C@H]1C(=O)N[C@@H](CC(N)=O)C(=O)N[C@H]2C(=O)N[C@H]3C(=O)N[C@H](C(=O)N[C@H](C(=O)O)c4cc(O)cc(O)c4-c4cc3ccc4O)[C@H](O)c3ccc(c(Cl)c3)Oc3cc2cc(c3O[C@@H]2O[C@H](CO)[C@@H](O)[C@H](O)[C@H]2O[C@H]2C[C@](C)(N)[C@H](O)[C@H](C)O2)Oc2ccc(cc2Cl)[C@H]1O [Vancomycin (hydrochloride)] : what is it?
Found: 9.98

* * *

Test system: Danio rerio larvae (5 dpf)
testSummary: difference in activity during first hour vs DMSO (percentage points); higher = more activity than DMSO
recordedConditions: 10 µM; exposure time 6 h
Structures can show the parent of a compound that is named as a salt.
Mark FALSE for difference in activity during first hour values under -2, and TRUE for everything at or above.

Example entries begin here.
COC(=O)N[C@H](C(=O)N1CCC[C@H]1c1nc(-c2ccc3c(c2)O[C@@H](c2ccccc2)n2c-3cc3cc(-c4c[nH]c([C@@H]5CCCN5C(=O)[C@@H](NC(=O)OC)C(C)C)n4)ccc32)c[nH]1)C(C)C; TRUE
CC(=O)OCC(=O)[C@@]12OC3(CCCC3)O[C@@H]1C[C@H]1[C@@H]3CCC4=CC(=O)C=C[C@]4(C)[C@@]3(F)[C@@H](O)C[C@@]12C [Amcinonide]; FALSE
Cc1cc(NS(=O)(=O)c2ccc(N)cc2)no1; TRUE
O=C(CCCN1CCC(O)(c2ccc(Cl)cc2)CC1)c1ccc(F)cc1; TRUE
Nc1nc2[nH]cc(CCc3ccc(C(=O)N[C@@H](CCC(=O)O)C(=O)O)cc3)c2c(=O)[nH]1 [Pemetrexed (sodium salt hydrate)]; TRUE

Lookup: Entry O=c1[nH]c2ccccc2n1CCN1CCN(c2cccc(C(F)(F)F)c2)CC1 : is its difference in activity during first hour no less than -2?
Found: TRUE

Lookup: Entry Cn1c(=O)c2[nH]cnc2n(C)c1=O [Oxtriphylline] : is its difference in activity during first hour no less than -2?
Found: TRUE

Lookup: Entry CC(C)OC(=O)[C@H](C)N[P@](=O)(OC[C@H]1O[C@@H](n2ccc(=O)[nH]c2=O)[C@](C)(F)[C@@H]1O)Oc1ccccc1 : is its difference in activity during first hour no less than -2?
Found: TRUE

Lookup: Entry C=C[C@]1(C)C[C@@H](OC(=O)CS[C@@H]2C[C@H]3CC[C@@H](C2)N3C)[C@]2(C)[C@H](C)CC[C@]3(CCC(=O)[C@H]32)[C@@H](C)[C@@H]1O : is its difference in activity during first hour no less than -2?
Found: FALSE

Lookup: Entry COC(=O)N(C)c1c(N)nc(-c2nn(Cc3ccccc3F)c3ncccc23)nc1N : is its difference in activity during first hour no less than -2?
Found: TRUE
